system: DIV14; test: qHTS profiling for inhibitors of Plasmodium falciparum proliferation (AID 504749); note: nearly all actives have a fitted effect of over 60% in size; note: potency is the fitted concentration of half-maximal effect; details: P. falciparum in erythrocytes, SYBR Green DNA, 72 h; series mostly up to 28.7 µM
Results filed as inconclusive are left out. Active and inactive are the calls of the source. Calls come from the whole dose curve; as a rule, active = well fitted inhibition curve with a large enough effect; inconclusive = small, poorly fitted or top-dose-only effect; inactive = flat fitted curve, though single readings scatter.
MEASURE: Potency

molecule=CC(=O)[O][Hg][c]1ccccc1 reading="4.78 µM (active)"
molecule="COC(=O)c1cncn1C(C)c1ccccc1 (configuration not stated)" reading=inactive
molecule=O=C(O)COc1ccccc1 reading=inactive
molecule=O=C(O)C(Cl)Cl reading=inactive
molecule=CCCCCCCCCCCCCCCC[N+](C)(C)C reading="6.75 µM (active)"
molecule=CN(C)[C@@H]1C(=O)C(C(N)=O)=C(O)[C@@]2(O)C(=O)C3=C(O)c4c(O)cccc4[C@@](C)(O)[C@H]3[C@H](O)[C@@H]12 reading=inactive
molecule="C=CCN1CC[C@]23CCCCC2[C@H]1Cc1ccc(O)cc13 (some centres not stated)" reading=inactive
molecule=O=[N+]([O-])c1ccc([As](=O)(O)O)cc1 reading="10.7 µM (active)"
molecule=CC(=O)OCC1=C(C(=O)O)N2C(=O)[C@@H](N)[C@@H]2SC1 reading=inactive
molecule=C1CCC(NC2CCCCC2)CC1 reading=inactive
molecule=COC(=O)[C@@H](N)CCCN=C(N)N[N+](=O)[O-] reading=inactive
molecule=CC[N+]1(CCOC(=O)C(O)(c2ccccc2)c2ccccc2)CCCCC1 reading=inactive

###

assay: Quantitative High-Throughput drug screen in 47 multiple myeloma cell lines against the NCATS MIPE library collection: KHM11_PLB cell viability assay (AID 1918962); settings: KHM11 myeloma cell viability, CellTiter-Glo ATP luminescence, 48 h; series mostly up to 45.8 µM; note: nearly all actives have a fitted effect of over 35% in size; note: potency is the fitted concentration of half-maximal effect
Results filed as inconclusive are left out. Active and inactive are the calls of the source. Calls come from the whole dose curve; as a rule, active = well fitted cell-killing curve with a large enough effect; inconclusive = small, poorly fitted or top-dose-only effect, or effect the other way; inactive = no such curve, though single readings can be large or run the other way.
MEASURE: Potency

compound="CCCC[N+]1(C)[C@H]2CC(OC(=O)[C@H](CO)c3ccccc3)C[C@H]1[C@H]1O[C@H]12 (stereo not given in full)" reading=inactive
compound=CC(C)N[C@@H]1CCn2c(=O)[nH]c3cccc(c32)[C@@H]1O reading="13.2 µM (active)"
compound=C[C@@H]1CC[C@@]2(OC1)O[C@H]1C[C@H]3[C@@H]4CC=C5C[C@@H](O[C@@H]6O[C@H](CO)[C@@H](O[C@@H]7O[C@@H](C)[C@H](O)[C@@H](O)[C@@H]7O)[C@H](O)[C@@H]6O[C@@H]6O[C@@H](C)[C@H](O)[C@@H](O)[C@@H]6O)CC[C@]5(C)[C@@H]4CC[C@]3(C)[C@@H]1[C@H]2C reading="2.96 µM (active)"
compound="COCC1(CO)C(=O)C2CCN1CC2 (stereo not given)" reading="7.43 µM (active)"
compound=Clc1ccccc1C(c1ccccc1)(c1ccccc1)n1cccn1 reading=inactive
compound=CCOC(=O)c1c(C(C#N)=CN)c2ccc(Cl)c(Cl)c2n1C reading=inactive
compound=C[C@]12CC[C@H](O)CC1=CC[C@H]1[C@H]3CCC(=O)[C@@]3(C)CC[C@@H]12 reading="14.8 µM (active)"
compound=CC(=Cc1csc(C)n1)[C@@H]1C[C@H]2O[C@]2(C)CCC[C@H](C)[C@@H](O)[C@@H](C)C(=O)C(C)(C)[C@@H](O)CC(=O)O1 reading=inactive
compound=O=c1[nH]c2ccccc2n1C1CCN(Cc2ccc(-c3[nH]c4cc5ncnc5cc4nc3-c3ccccc3)cc2)CC1 reading=inactive
compound=CC1(N2CCC(n3c([C@@H]4CCCNC4)nc4ccccc43)CC2)CCCCCCC1 reading="6.62 µM (active)"
compound=C[C@H]([C@H](O)CCC(C)(C)O)[C@H]1CC[C@@]2(O)C3=CC(=O)[C@@H]4C[C@@H](O)[C@@H](O)C[C@]4(C)[C@@H]3CC[C@]12C reading=inactive
compound=CC=C(C)C(=O)O[C@H]1C(C)=C2[C@@H]3OC(=O)[C@@](C)(O)[C@@]3(O)[C@@H](OC(=O)CCC)C[C@](C)(OC(C)=O)[C@@H]2[C@@H]1OC(=O)CCCCCCC reading="0.332 µM (active)"
compound=COc1cccc2c1[C@]13CCN(CC4CC4)[C@H](C2)[C@]1(OC)CCC(=O)C3 reading=inactive
compound=CC(C)[C@]12O[C@@H]1[C@@H]1O[C@]13[C@]1(O[C@H]1C[C@@H]1C4=C(CC[C@@]13C)C(=O)OC4)[C@H]2O reading=inactive
compound=CC(C)(O)C(=O)Nc1ccc([N+](=O)[O-])c(C(F)(F)F)c1 reading="20.9 µM (active)"

###

system: SKOV3; assay: Primary qHTS to identify gynecologic anti-cancer compounds using libraries of approved drugs and bioactive compounds (AID 1345084); conditions: Gynecologic cancer cell panel viability, ATPlite luminescence, 48 h; series mostly up to 57.5 µM; note: nearly all actives have a fitted effect of over 55% in size; note: potency is the fitted concentration of half-maximal effect
Results filed as inconclusive are left out. The source made the active and inactive calls. Calls come from the whole dose curve; as a rule, active = well fitted cell-killing curve with a large enough effect; inconclusive = small, poorly fitted or top-dose-only effect, or effect the other way; inactive = flat fitted curve, though single readings scatter.
MEASURE: Potency

compound=CCCCCCCCCCCCCCCC[N+](C)(C)C measure=Potency reading="28.2 µM (active)"
compound="CC1(C)CC/C(=C/c2ccc(Cl)cc2)C1(O)Cn1cncn1 (stereo unspecified)" measure=Potency reading=inactive
compound=CO/C=C(/C(=O)OC)c1ccccc1Oc1cc(Oc2ccccc2C#N)ncn1 measure=Potency reading="7.94 µM (active)"
compound=O=C(NCC1CCOCC1)c1cnc(Nc2ccc(Cl)cc2Cl)nc1C(F)(F)F measure=Potency reading=inactive
compound=C=CC(=O)NCNC(=O)C=C measure=Potency reading=inactive
compound=S=C(NC1CCCCC1)N1CCC(c2cnc[nH]2)CC1 measure=Potency reading=inactive

###

system: UISO; experiment: qHTS assay to identify novel small-molecules to repurpose for Merkel cell carcinoma treatment (AID 1296009); settings: MCC and control cell lines, CellTiter-Glo viability, 72 h; series mostly up to 46 µM; note: nearly all actives have a fitted effect of over 60% in size
Records with an inconclusive call do not appear. The source made the active and inactive calls. Calls come from the whole dose curve; as a rule, active = well fitted inhibition curve with a large enough effect; inconclusive = small, poorly fitted or top-dose-only effect; inactive = flat fitted curve, though single readings scatter.
Labels: 1 (active), 0 (inactive)

compound="COC(=O)c1cncn1C(C)c1ccccc1 (centres undefined)" group_label=0
compound=O=[N+]([O-])c1c2ccccc2cc2ccccc12 group_label=1
compound=CC(O)=C(C#N)C(=O)Nc1cc(Br)ccc1Br group_label=0
compound=CC(C)(O)C(=O)Nc1ccc([N+](=O)[O-])c(C(F)(F)F)c1 group_label=0
compound="NC1CC1c1ccccc1 (centres undefined)" group_label=0
compound=CCCN1CCO[C@@H]2c3cc(O)ccc3OC[C@@H]21 group_label=0
compound=Cc1ccc(Cl)c(O)c1 group_label=0
compound="COc1ccc2c(c1)[C@]13CCCCC1C(C2)N(C)CC3 (some centres undefined)" group_label=0
compound=CC(C)(C)NC[C@H](O)c1ccc(O)cc1Cl group_label=0
compound="COc1ccc2c(c1)CN(C)CC2c1ccc(Cl)c(Cl)c1 (centres undefined)" group_label=0
compound=CCN1C[C@]2(OC(=O)c3ccccc3NC(C)=O)CC[C@H](OC)[C@@]34[C@H]5CC6[C@@H](OC)C[C@](O)(C(C[C@@H]23)[C@@H]14)[C@@]5(O)[C@@H]6OC group_label=0
compound="N=c1c2c(-c3ccccc3)c(-c3ccccc3)n(Cc3ccccc3)c2ncn1C1CCC(O)CC1 (centres undefined)" group_label=1
compound=Cc1ccccc1-n1c(Cn2cnc3c(N)ncnc32)nc2cccc(C)c2c1=O group_label=1
compound=CC(C)N[C@@H]1CCn2c(=O)[nH]c3cccc(c32)[C@@H]1O group_label=0
compound=CC=C(C)C(=O)O[C@H]1C(C)=C2[C@@H]3OC(=O)[C@@](C)(O)[C@@]3(O)[C@@H](OC(=O)CCC)C[C@](C)(OC(C)=O)[C@@H]2[C@@H]1OC(=O)CCCCCCC group_label=1
compound=CN1CCN(c2ccc([N+](=O)[O-])c3no[n+]([O-])c23)CC1 group_label=0
compound=C[C@@H]1[C@H](O)[C@@H](C)C=CC=CCCC=CC=CC=CC=C[C@H](O[C@H]2O[C@@H](C)[C@H](O)[C@@H](N)[C@@H]2O)CC2O[C@](O)(C[C@@H](O)[C@H](O)CC[C@@H](O)C[C@@H](O)C[C@@H](O)CC(=O)O[C@H]1C)C[C@H](O)[C@H]2C(=O)O group_label=0
compound=CC1=C(C(=O)O)N2C(=O)[C@@H](N)[C@H]2SC1 group_label=0
compound=O=c1[nH]c2ccccc2n1C1CCN(Cc2ccc(-c3[nH]c4cc5ncnc5cc4nc3-c3ccccc3)cc2)CC1 group_label=0

###

test system: KB-3-1; assay: Cytotoxic Profiling of Annotated Libraries Using Quantitative High-Throughput Screening (AID 1296008); conditions: Five cell lines viability, CellTiter-Glo ATP luminescence, 48-72 h; hits give low values; note: % is set by controls: 0 for no effect and ±100 for the full control effect; nearly all actives have a fitted effect of over 60% in size
Records with an inconclusive call do not appear.
Overview of recorded max response for various compounds
MEASURE: max response (%)

compound=O=[N+]([O-])c1c(Cl)c(Cl)cc(Cl)c1Cl measure="max response" reading=-18.1
compound=CCc1c(C(=O)C(N)=O)c2c(OCC(=O)O)cccc2n1Cc1ccccc1 measure="max response" reading=9.54
compound=CC(C)Oc1cccc(NC(=O)c2ccccc2C(F)(F)F)c1 measure="max response" reading=-12.9
compound=c1cc2ccc3cccc4ccc(c1)c2c34 measure="max response" reading=-15.2
compound=O=S(=O)(F)Cc1ccccc1 measure="max response" reading=3.23
compound="CCO/N=C(\\CC)C1=C(O)CC(c2c(C)cc(C)cc2C)CC1=O (centres undefined)" measure="max response" reading=-11.8
compound=CN[C@@H]1Cc2cccc3[nH]c(=O)n(c23)C1 measure="max response" reading=9.87
compound="O=S(=O)(CC1CS1)c1ccc(Oc2ccccc2)cc1 (centres undefined)" measure="max response" reading=0.22
compound="COC(=O)c1cncn1C(C)c1ccccc1 (centres undefined)" measure="max response" reading=-9.65
compound=CC(C)[C@H]1C(=O)N[C@H](CO)Cc2c[nH]c3cccc(c23)N1C measure="max response" reading=9.88
compound=CC(C)N(CCNC(=O)CN1CCCC1=O)C(C)C measure="max response" reading=-4.8
compound=CCOC(=O)c1cncn1[C@H](C)c1ccccc1 measure="max response" reading=6.23
compound="COC(C)(C)CCCC(C)C/C=C/C(C)=C/C(=O)OC(C)C (centres undefined)" measure="max response" reading=3.28
compound=O=S(=O)(O)C(F)(F)C(F)(F)C(F)(F)C(F)(F)F measure="max response" reading=-15.1
compound=O=C(N[C@@H](COc1ccc2[nH]c(=O)[nH]c2c1)c1ccccc1)c1cccn(Cc2ccc(F)c(F)c2)c1=O measure="max response" reading=-0.47
compound=C[C@](O)(COc1ccc(C#N)cc1)C(=O)Nc1ccc(C#N)c(C(F)(F)F)c1 measure="max response" reading=-23.6
compound="CC(=CCCC1=CCC(C2=CC(=O)OC2O)OC1O)CCC1=C(C)CCCC1(C)C (centres undefined)" measure="max response" reading=-6.74
compound=CCCN(CCC)c1c([N+](=O)[O-])cc(S(N)(=O)=O)cc1[N+](=O)[O-] measure="max response" reading=-9.77
compound="CCOP(=O)(NC(C)C)Oc1ccc(SC)c(C)c1 (centres undefined)" measure="max response" reading=-7.33
compound="NC1=NC(=O)N2CC12 (centres undefined)" measure="max response" reading=6.64
compound=O=C1CCC[C@@H]2[C@H]3CCCN4CCC[C@@H](CN12)[C@@H]34 measure="max response" reading=2.17
compound="c1ccc(C2(c3ccccc3)CC2C2=NCCN2)cc1 (centres undefined)" measure="max response" reading=-1.25
compound=Cc1c(C(=O)Nc2cccc(C(F)(F)F)c2)cc(-c2ccccc2)n1CCCN1CCOCC1 measure="max response" reading=-13.2
compound="C#CC1(O)CCC2C3CCC4=CC(=O)CCC4(C)C3CCC21C (centres undefined)" measure="max response" reading=-11.2
